The values you see were collected from patent CN108239149A.

testSystem: 人PD-L1 expressed on cells (表达PD-L1的CHO细胞) (human) (UniProt Q9NZQ7)
assayInfo: cell-based or functional assay
Define the label as met when 相对光单位(RLU) NFAT报告细胞 EC50 is strictly less than 0.9 µg/mL and as not met in all remaining cases.

Answered cases to consult:
[[record]]
binder = "29A8H8C7 (antibody, V domains shown, Mouse hybridoma clone; Made recombinantly as variable region + constant region in HEK293-6E) VH: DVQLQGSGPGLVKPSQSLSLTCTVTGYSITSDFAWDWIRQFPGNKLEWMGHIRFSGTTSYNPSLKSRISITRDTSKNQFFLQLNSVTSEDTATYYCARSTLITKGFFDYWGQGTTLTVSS VL: DIVMTQSHKFMSTSVGGRVSITCKASQDVSPAVAWYQQKPGQSPKLLIYWASTRHTGVPDRFTGSGSGTDFTLTISSVQTEDLALYYCQQHYSTPWTFGGGTKLEIK"
answerlabel = "met"

[[record]]
binder = "42G2D7C3 (antibody, V domains shown, Made recombinantly as variable region + constant region; also called 42G2D7D3) VH: DVQLLESGPGLVKPSQSLSLTCSVTGYSITSGYYWNWIRQFPGNNLEWMGSINYDGSNDYNPSLQDRISITRDTSKNQFFLKLNSVTTEDTATYYCARRLDYWGQGTTLIVSS VL: QIVLTQSPAIMSASPGEKVTISCSASSFINYMYWYQQKPGSSPKPWILRTSTLASGVPARFSGSGSGTSYSLTISSMEAEDAATYYCQQYHSYPLTFGAGTKLELK"
answerlabel = "not met"

[[record]]
binder = "18B7F4G8 (antibody, V domains shown, Mouse hybridoma clone; Detected with goat anti-mouse IgG) VH: DVQLQESGPDLVKPSQSLSLTCTVTGYSITSGYTWHWIRQFPGNKLEWMGYIHYSGSTKYNPSLKSRFSITRDTSKNQFFLQLNSMTAEDTATYYCARNSLFASWGHGTLVTVSA VL: DIVLTQSPASLAVSLGQRATISCRASESVDTYGDSFMHWFQQKPGQPPKLLIYRASNLESGIPARFSGSGSRTDFTLTINPVEADDVATYYCQQSNEAPYTFGGGTKLEIK"
answerlabel = "met"


From here, focus on the item given below.
Prompt: Lab note: 相对光单位(RLU) NFAT报告细胞 EC50 threshold 0.9 µg/mL. Does this binder come in strictly under it? 53C1F3D4 (antibody, V domains shown, Mouse hybridoma clone; Made recombinantly as variable region + constant region in HEK293-6E) VH: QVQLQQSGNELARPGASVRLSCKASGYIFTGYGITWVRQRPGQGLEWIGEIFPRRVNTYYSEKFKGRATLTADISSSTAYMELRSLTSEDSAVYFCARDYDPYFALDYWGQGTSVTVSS VL: DIVMTQSHKFMSTSVGDRVSITCKASQDVSTAVDWYQQKPGQSPKLLIYSASYRYTGVPDRFTGSGSGTAFTFTISGEQAEDLAVYYCQQHYSIPFTFGGGTKLEIK
Completion: met
